# Test system: Streptococcus pneumoniae ATCC 49619
# protocol_text: Broth microdilution MIC, S. pneumoniae ATCC 49619
# Type: cell-based
# setup_conditions: ATCC49619, broth microdilution, 37° C., 20 hours, read-out: MIC S. pneumoniae ATCC 49619
metric: MIC

| structure_smiles_string | meas_value |
| --- | --- |
| C[Si](C)(C)CCOCNC(=O)Cn1ncc2nc(NCc3ccc(Cl)c(Cl)c3)[nH]c(=O)c21 | > 64 µg/mL |
| Cn1nc(C(=O)O)c2nc(NCc3ccc(Cl)c(Cl)c3)[nH]c(=O)c21 | > 64 µg/mL |
| O=C(CCCCn1ncc2nc(NCc3ccc(Cl)c(Cl)c3)[nH]c(=O)c21)NO | 4 µg/mL |
| O=c1[nH]c(NCc2ccc(Cl)c(Cl)c2)nc2cnn(Cc3ccccc3)c12 | > 64 µg/mL |

Origin of the recorded values: patent US10723741B1
